Target: Alpha-2C adrenergic receptor (Homo sapiens) (UniProt P18825)
Sequence (P18825 whole entry, looked up): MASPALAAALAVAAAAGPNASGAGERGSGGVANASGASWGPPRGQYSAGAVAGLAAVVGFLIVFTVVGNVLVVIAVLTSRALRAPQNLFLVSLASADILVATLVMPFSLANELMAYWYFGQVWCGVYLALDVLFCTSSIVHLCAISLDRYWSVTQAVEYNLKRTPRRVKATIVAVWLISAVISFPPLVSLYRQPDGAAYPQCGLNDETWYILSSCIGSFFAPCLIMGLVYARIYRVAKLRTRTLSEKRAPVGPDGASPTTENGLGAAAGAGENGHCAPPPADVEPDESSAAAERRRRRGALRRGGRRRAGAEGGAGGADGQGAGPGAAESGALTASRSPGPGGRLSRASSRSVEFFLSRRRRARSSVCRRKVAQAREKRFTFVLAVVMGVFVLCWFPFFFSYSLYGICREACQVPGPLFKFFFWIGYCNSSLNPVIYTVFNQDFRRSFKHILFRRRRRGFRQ
Test: compounds altering alpha2C-coupled GIRK flux – cell-based, HEK293 alpha2C/GIRK1/2, thallium flux, primary screen (AID 624);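 also: slope of fluorescence ratio to pre-addition baseline per second over 15 to 24 s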
Details: thallium flux BTC fluorescence, at 10 µM, actives lie on both sides
Doc: threshold 0.006 (exclusive). Items with slope beneath it return MET; others return NOT MET.

Say whether its slope is strictly beneath 0.006. Entry: COC(=O)C(C)Sc1nc2c(c(=O)n1-c1ccccc1)SCC2 (stereo unspecified)
MET

I wonder whether `O=C(NCc1cccs1)c1cc2c(s1)CCCC2` has slope below 0.006. Can you tell?
MET

# strict comparison: is reported slope < 0.006? input = `Cn1nnnc1SCC(=O)N1CCN(c2cccc(Cl)c2)CC1`
MET

Is slope strictly under 0.006 for the entry CC(NC(=O)COc1ccccc1)C(=O)NC1=NCCS1 (stereo unspecified) ?
MET

Problem: For the molecule `Cn1c(=N)n(CC(=O)O)c2ccccc21` , is slope under 0.006?
MET

Decide: slope of `Cn1c(=O)[nH]c(=O)c2c1nc(NC1CCCCC1)n2CC(=O)NC1CCCCC1` strictly below 0.006?
NOT MET

* * *

Target: Alpha-2C adrenergic receptor (Homo sapiens)
Assay: compounds altering alpha2C-coupled GIRK flux – cell-based, HEK293 alpha2C/GIRK1/2, thallium flux, primary screen (AID 624);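 also: slope of fluorescence ratio to pre-addition baseline per second over 15 to 24 s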
Details: thallium flux BTC fluorescence, at 10 µM, actives lie on both sides
metric: slope
Answer with a number only.

So what's the measured slope for this one? `O=c1c2ccccc2nc2n1CCN2`
0.00443

Quick one: slope for `N#Cc1cc2c(nc1SCC(=O)Nc1sc3c(c1C#N)CCC3)CCCCC2` ?
0.00575

// query slope value for entry C=CCSC1=C(C#N)C(c2ccccc2Cl)CC(=O)N1 (stereo not drawn)
0.0048

Entry `COC(=O)c1ccccc1NS(=O)(=O)c1ccc(F)cc1` : reported slope = ?
0.00602

Recorded slope of CCOc1ccc(CNC(=O)C2CCCN(S(C)(=O)=O)C2)cc1OC (stereo not drawn) , please.
0.00564

Find the recorded slope belonging to CCOC(=O)CN1CC23C=CC(O2)C(C(=O)Nc2ccc(OC)cc2OC)C3C1=O (stereo not drawn) and report it.
0.00618

Item `COC(=O)[C@H](C)NC(=O)Nc1cccc(C(F)(F)F)c1` has what recorded slope?
0.00446

* * *

Test: inhibitors of TNFa-induced NFkB p65 translocation, primary screen, imaging, HUVEC, MLSMR starter and 10KST1 sets (AID 438);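 also: compound added about 3h40 before a 20 min TNFalpha stimulation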;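 as to inhibition: signal is the nuclear over cytoplasmic p65 intensity ratio per well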
Details: HUVEC TNFa-induced p65 nuclear translocation; at 2 µM, stronger effect = higher value, 0% TNFa-plus-vehicle, 100% no-TNFa wells
Measured inhibition, listed per entry.
Provide only the numeric value, understood in %.

{"compound": "Cc1nn(-c2ccccc2)c(Cl)c1C(=O)NCC(=O)O", "measurementUnits": "%", "inhibition": 3.9}

What value of measured inhibition is listed for `CC(=O)Nc1c2c(nn1-c1ccc(C)cc1C)CSC2` ?
0.9

Sample CC1CN(CC(O)COc2ccccc2C(C)(C)C)CC(C)O1 (stereo unspecified) — what was its inhibition?
-29.6

For the compound shown here, `CCN(CCNC(=O)C1CCN(S(C)(=O)=O)CC1)c1ccccc1` , give the reported inhibition.
3.8

// returns reported inhibition for input `Cc1ccccc1Cn1nc(C)c(NC(=O)c2noc3c2CCc2ccccc2-3)c1C`
2.9

# lookup: inhibition of CCC(C)c1ccc(NC(=O)c2cccnc2)cc1 (stereo unspecified)
18

Any idea what its inhibition is? The compound is `Cc1cnc(C(=O)OCC(=O)Nc2ccc(Oc3ccccc3)cc2)cn1`
-16.3

Which inhibition is reported for this compound? `COc1ccc(CN(Cc2nc3ccccc3c(=O)[nH]2)C(=O)NC2CCCCC2)cc1`
-8.4

Quick check: inhibition of `C=CCn1c(COc2ccccc2)nnc1SCC(=O)C(C)(C)C` ?
0.9

Look up inhibition for this compound: `COc1ccccc1Nc1ccc(C(=O)NC2CCCCC2)cn1`
1

Given the entry `COc1ccc(-n2c(SCC(=O)c3c(N)n(C)c(=O)n(C)c3=O)nc3ccccc32)cc1` , report its measured inhibition.
1.4

* * *

Biological target: Alpha-2C adrenergic receptor (Homo sapiens) (UniProt P18825)
Assay: compounds altering alpha2C-coupled GIRK flux – cell-based, HEK293 alpha2C/GIRK1/2, thallium flux, primary screen (AID 624);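 also: slope of fluorescence ratio to pre-addition baseline per second over 15 to 24 s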
Settings: thallium flux BTC fluorescence, at 10 µM, actives lie on both sides
metric: slope
Number, no unit, nothing else.

// worked examples, slope included
{"compound": "CN(C)c1ccc(/C(=N\\O)c2ccccc2)cc1", "slope": 0.00326}
{"compound": "Cc1ccc(C)c(N2CCN(C(=O)CCCn3c(=S)[nH]c4cc5c(cc4c3=O)OCO5)CC2)c1", "slope": 0.00641}
{"compound": "C=CC(O)(C#CCN(CC)CC)c1ccccc1 (stereo unspecified)", "slope": 0.0061}
{"compound": "COc1ccc2nc(NC(=O)C3CCCN(S(=O)(=O)c4cccc5nsnc45)C3)sc2c1 (stereo unspecified)", "slope": 0.00595}
{"compound": "CCC(=O)Nc1c2c(nn1-c1ccccc1C)CSC2", "slope": 0.00682}
{"compound": "Cc1cc(N2CCN(c3ccccn3)CC2)n2nc(C)nc2n1", "slope": 0.00609}
{"compound": "CCOC(=O)c1[nH]c(CSc2nnc(-c3ccc(OC)cc3)o2)c(C(=O)OCC)c1C", "slope": 0.00625}
{"compound": "COC(=O)c1ccccc1NC(=O)C1CC(=O)N(c2ccccc2)C1 (stereo unspecified)", "slope": 0.00531}

Which slope is reported for this compound? `CCOc1ccccc1C(=O)Nc1nnc(CC)s1`
0.00564

Reported slope, compound `c1ccc(Nc2ccccc2Nc2ccccn2)nc1` : ____
0.00758

Which measured slope value corresponds to `COc1ccccc1NC(=O)Cc1noc(CSc2cc(C)c3ccccc3n2)n1` ?
0.00168

* * *

Assay: inhibitors of TNFa-induced NFkB p65 translocation, primary screen, imaging, HUVEC, MLSMR starter and 10KST1 sets (AID 438);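 also: compound added about 3h40 before a 20 min TNFalpha stimulation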
Settings: HUVEC TNFa-induced p65 nuclear translocation; measured here: nuclei count (cytotoxicity indicator), at 2.08 µM
metric: cell count

Example entries and their recorded answers appear below.
{"molecule": "CCn1nnc(NC(=O)c2ccc(-c3ccc(Cl)cc3)o2)n1", "metric": "cell count", "result": 391}
{"molecule": "Cc1nc2sc(C(c3ccccc3)N3CCN(c4ccccc4F)CC3)c(O)n2n1 (stereo unspecified)", "metric": "cell count", "result": 305}
{"molecule": "CCOc1cccc(C(=O)N(Cc2ccco2)C2CCS(=O)(=O)C2)c1 (stereo unspecified)", "metric": "cell count", "result": 609}

Recorded cell count of `O=S(=O)(c1ccc2nc(Cc3cccc(C(F)(F)F)c3)[nH]c2c1)N1CCOCC1` , please.
383

Using the record for CCOC(=O)N1CCC(N2C(=O)c3ccccc3C2Nc2cc(Cl)c(OC)cc2OC)CC1 (stereo unspecified) , report its cell count.
761

Which cell count reading was recorded for the molecule `Fc1cccc2sc(N3CCOCC3)nc12` ?
255

* * *

Experiment: endothelial E-selectin expression blockers – imaging, HUVEC, immunofluorescence, MLSMR starter and 10KST1 sets, primary screen (AID 487);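 also: 100% = median nuclei count of all wells on the same plate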
Details: HUVEC TNFalpha-induced E-selectin immunofluorescence imaging, at 2 µM; measured here: cell number, toxicity
metric: nuclei count
Dear colleague, please send the value followed by its unit.

{"compound": "CCOC(=O)C1=C(C)N=c2s/c(=C\\c3cccn3C)c(=O)n2C1c1cccc(OC)c1OC (stereo unspecified)", "metric": "nuclei count", "result": "102%"}
{"compound": "CCOC(=O)N1CCN(C(=O)COc2ccc(S(=O)(=O)NC3CCCCC3)cc2C)CC1", "metric": "nuclei count", "result": "93.5%"}
{"compound": "CC(=O)NC(Cc1c[nH]c2ccccc12)C(=O)OCC(=O)Nc1cc(C)on1 (stereo unspecified)", "metric": "nuclei count", "result": "97.6%"}
{"compound": "Cc1occc1C(=O)N1CCN(Cc2ccccc2)CC1", "metric": "nuclei count", "result": "104%"}
{"compound": "COc1ccc(N2CCN(CCCNC(=O)C3(S(=O)(=O)c4ccc(Cl)cc4)CC3)CC2)cc1", "metric": "nuclei count", "result": "115%"}
{"compound": "O=C(Nc1ccc2c(c1)OCCO2)C1CCCN1S(=O)(=O)c1cccc2cccnc12 (stereo unspecified)", "metric": "nuclei count", "result": "106%"}

Please look up its nuclei count: `C=CCNC(=O)CSc1nc2sc(C)c(C)c2c(=O)[nH]1`
112%

Any idea what nuclei count was measured for `CCOC(=O)c1cc(NC(=O)SCC(=O)O)c(C)nc1C` ?
128%

What value of measured nuclei count is listed for O=C(CC1CCS(=O)(=O)C1)Nc1ccc[nH]c1=O (stereo unspecified) ?
49%

Reported nuclei count, compound Cc1cccc(NC(=O)C2CCCN(C(=O)Nc3ccccc3)C2)c1C (stereo unspecified) : ____
85.7%

nuclei count lookup needed for `CC(C)Cn1c(N)c(C(=O)NCCN2CCOCC2)c2nc3ccccc3nc21` , thanks.
81.3%
